- target.or.test.system: Melanin-concentrating hormone receptor 1 (Homo sapiens)
- Sequence (Q99705 whole entry): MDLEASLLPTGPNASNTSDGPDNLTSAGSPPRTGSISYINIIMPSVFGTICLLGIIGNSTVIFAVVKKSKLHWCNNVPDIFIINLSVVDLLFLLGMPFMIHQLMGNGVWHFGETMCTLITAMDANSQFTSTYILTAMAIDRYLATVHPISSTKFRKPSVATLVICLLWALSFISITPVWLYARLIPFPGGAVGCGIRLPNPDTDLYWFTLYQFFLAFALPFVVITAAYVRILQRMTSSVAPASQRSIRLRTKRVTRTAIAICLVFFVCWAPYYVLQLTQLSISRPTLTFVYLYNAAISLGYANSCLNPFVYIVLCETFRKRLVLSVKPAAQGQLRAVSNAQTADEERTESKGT
- assay.protocol: Antagonist activity at MCH1R
measured.metric: Ki (nM)

Worked cases, Ki given:
Please report Ki for the following compound: CCN(CC)Cc1ccc2c(c1)CCC(N1CCN(CCc3ccc(F)cc3)CC1=O)C2 (centres undefined)
3

Please report Ki for the following compound: `CN[C@@H]1CCN(c2ccc(-n3ccc4cc(-c5ccc(C(F)(F)F)cc5)sc4c3=O)cn2)C1`
3.3

[1] Cn1cc(CCN2CCCC2)c2ccc(-n3ccc4nc(-c5ccc(Cl)cc5)sc4c3=O)cc21
[2] COc1cc(-c2cnc3[nH]c(-c4ccc(Cl)cc4)cn3c2=O)ccc1OCCN1CCCC1
Select one. Lower Ki: 1 or 2 Answer format: the label of the selected item.
1

----------
- target.or.test.system: Melanin-concentrating hormone receptor 1 (Homo sapiens)
- assay.protocol: Antagonist activity at MCH1R by [35S]GTPgammaS binding assay
- Type: functional
measured.metric: IC50 (nM)
Numeric answer only, unit nM assumed.

Please report IC50 for the following molecule: CN(C)CC1CCc2cc(NC(=O)c3ccc(-c4ccc(F)cc4)cc3)ccc2C1 (stereo unspecified)
19

----------
- target.or.test.system: UniProt:Q99705
- assay.protocol: Antagonist activity at MCH1R
- Format: functional
pIC50: −log10 of the molar value.
Measured pIC50, listed per entry for reference.

Please report pIC50 for the following compound: `CC(C)N(C)c1nc2cc(-c3noc(COCc4ccc(Cl)cc4)n3)ccc2[nH]1`
8.15

Please report pIC50 for the following compound: `CN(C)CCOc1ccc(-n2ccn(-c3ccc(Oc4ccccc4)cc3)c2=O)cc1`
< 7.00

Please report pIC50 for the following compound: `COc1cc(-n2nnc3cc(-c4ccc(Cl)cc4)sc3c2=O)ccc1N1CC[C@@H](O)C1`
< 5.30
